# SYSTEM: FGFR3 (UniProt P22607)
# Sequence (P22607 whole entry, looked up): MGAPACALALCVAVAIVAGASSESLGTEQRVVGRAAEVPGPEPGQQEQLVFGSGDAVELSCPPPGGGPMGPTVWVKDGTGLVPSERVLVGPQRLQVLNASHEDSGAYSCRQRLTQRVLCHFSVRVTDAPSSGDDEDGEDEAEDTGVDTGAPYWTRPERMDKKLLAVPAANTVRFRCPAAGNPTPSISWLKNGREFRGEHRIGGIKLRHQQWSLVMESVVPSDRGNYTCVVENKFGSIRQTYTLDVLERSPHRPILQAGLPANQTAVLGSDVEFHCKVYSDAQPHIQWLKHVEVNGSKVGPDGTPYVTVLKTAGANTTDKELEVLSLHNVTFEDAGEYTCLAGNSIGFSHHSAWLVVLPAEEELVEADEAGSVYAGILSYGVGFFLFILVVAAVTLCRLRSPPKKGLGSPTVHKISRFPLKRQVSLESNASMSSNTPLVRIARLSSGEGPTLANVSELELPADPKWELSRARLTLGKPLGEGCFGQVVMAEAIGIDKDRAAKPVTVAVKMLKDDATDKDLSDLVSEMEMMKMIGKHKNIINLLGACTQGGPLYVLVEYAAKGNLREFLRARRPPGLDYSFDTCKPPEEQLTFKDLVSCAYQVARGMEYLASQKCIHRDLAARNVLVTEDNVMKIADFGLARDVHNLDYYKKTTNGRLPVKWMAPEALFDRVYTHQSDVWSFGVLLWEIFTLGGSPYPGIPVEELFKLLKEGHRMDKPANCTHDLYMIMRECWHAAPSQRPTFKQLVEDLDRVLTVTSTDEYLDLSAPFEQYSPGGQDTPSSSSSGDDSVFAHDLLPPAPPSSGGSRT
# PROTOCOL TEXT: phosphorylation enrichment, bacterial display (enrichment ratio); higher = better substrate or ligand; peptides without Tyr show the background;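 further: 11-residue human phosphosite peptides and single-mutation variants displayed on the E. coli surface, counted by deep sequencing, each peptide's frequency after selection divided by its frequency in the unselected input library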;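 further: frequency after pTyr selection over input frequency; kinase dosed for 20-30% of maximal phosphorylation in three min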
Binary classification by phosphorylation enrichment, with 0.7 as an inclusive lower bound for Met; all other cases are Not met.

// known answers, use as guide
SEQUENCE CODE	GROUP LABEL
AHLTEYLSTHF [UQCRC1_Y219_D215H_YF]	Not met
FQKNVYSEELR [LMNA_Y211_I210V]	Not met
WCKPPYFSCAV [MMS22L_Y28]	Not met
HLGNQYVNVMN [SLC3A1_Y461_R456H]	Not met
FGLPRYRWLTH [TSPAN12_Y143_YF]	Not met

Evaluate IPVNGYQPVPA [ROR2_Y824_V819I] : phosphorylation enrichment at minimum 0.7?
Not met

Determine whether this sequence has phosphorylation enrichment no lower than 0.7: HSDYQYSQRSQ [PKP2_Y168]
Not met

Is phosphorylation enrichment at least 0.7? Consider LGSNGCKKLLK [SEPSECS_Y334_Y334C]
Met

hey, is phosphorylation enrichment for this one >= 0.7? CKPGFYNLKEK [LAMA1_Y490]
Not met

Reported phosphorylation enrichment reaches at least 0.7 for SDVNKYSTAFG [GJB3_Y16_G12D] ?
Not met

Decide: is the reported value of phosphorylation enrichment for VVLGSYDRLRV [IFT172_Y260] equal to or greater than 0.7?
Not met

Has DESEDYRDTVV [CNNM3_Y456] a recorded phosphorylation enrichment greater than or equal to 0.7?
Met
